MEASURED PROPERTY: IC50 (nM)
Give the number; nM is assumed, so skip it.

// query What value of IC50 on Epidermal growth factor receptor (Homo sapiens) does CC(C)S(=O)(=O)c1ccccc1Nc1nc(N/N=C/c2ccc(F)cc2)ncc1Cl have?
// result 570

// query # get_value(readout= IC50, system= Epidermal growth factor receptor (Homo sapiens)) for CC(C)S(=O)(=O)c1ccccc1Nc1nc(N/N=C/c2ccc(C(F)(F)F)cc2)ncc1Cl
// result 593

// query Provide value of IC50 for this record tested with Epidermal growth factor receptor (Homo sapiens): COc1cccc(/C=N/Nc2ncc(Cl)c(Nc3ccccc3S(=O)(=O)C(C)C)n2)c1
Sequence (P00533 whole entry): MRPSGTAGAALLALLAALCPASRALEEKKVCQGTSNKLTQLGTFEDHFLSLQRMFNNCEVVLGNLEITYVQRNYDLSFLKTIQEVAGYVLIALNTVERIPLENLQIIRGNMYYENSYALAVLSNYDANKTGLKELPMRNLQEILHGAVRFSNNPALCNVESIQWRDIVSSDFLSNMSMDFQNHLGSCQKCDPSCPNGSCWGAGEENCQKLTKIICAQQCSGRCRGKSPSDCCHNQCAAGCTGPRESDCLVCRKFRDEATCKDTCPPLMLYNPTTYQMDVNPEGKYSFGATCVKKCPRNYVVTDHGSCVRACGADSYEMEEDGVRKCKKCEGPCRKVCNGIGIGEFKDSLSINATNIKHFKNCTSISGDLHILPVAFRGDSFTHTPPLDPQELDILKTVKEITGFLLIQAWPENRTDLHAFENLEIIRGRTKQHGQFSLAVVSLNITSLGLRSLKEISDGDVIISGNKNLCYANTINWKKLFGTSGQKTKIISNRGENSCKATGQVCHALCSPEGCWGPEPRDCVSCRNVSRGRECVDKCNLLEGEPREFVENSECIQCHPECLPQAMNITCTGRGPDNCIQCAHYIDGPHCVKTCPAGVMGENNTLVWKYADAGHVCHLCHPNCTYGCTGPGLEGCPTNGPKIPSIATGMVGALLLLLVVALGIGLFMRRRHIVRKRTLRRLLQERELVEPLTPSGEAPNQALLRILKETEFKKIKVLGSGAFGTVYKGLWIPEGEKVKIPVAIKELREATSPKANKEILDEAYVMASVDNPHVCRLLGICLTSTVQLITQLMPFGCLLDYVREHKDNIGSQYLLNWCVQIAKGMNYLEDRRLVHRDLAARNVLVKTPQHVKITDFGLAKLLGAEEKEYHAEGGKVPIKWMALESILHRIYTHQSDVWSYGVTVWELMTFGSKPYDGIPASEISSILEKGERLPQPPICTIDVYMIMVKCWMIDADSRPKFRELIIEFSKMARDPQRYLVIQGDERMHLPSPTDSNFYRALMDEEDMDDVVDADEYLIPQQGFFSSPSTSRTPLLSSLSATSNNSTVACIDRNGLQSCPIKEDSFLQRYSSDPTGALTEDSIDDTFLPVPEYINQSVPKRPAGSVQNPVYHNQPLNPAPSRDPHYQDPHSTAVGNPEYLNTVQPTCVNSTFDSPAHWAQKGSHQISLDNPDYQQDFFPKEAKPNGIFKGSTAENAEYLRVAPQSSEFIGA
// result 601

---

# ASSAY REMARKS: cells
# MEASUREMENT SETUP: Homo sapiens, KARPAS-299, 72 h
# Description: Cytotoxicity against human KARPAS299 cells harboring NPM-ALK assessed as reduction in cell proliferation after 72 hrs by MTT assay
MEASURED PROPERTY: IC50 (nM)
State just the number; it will be interpreted in nM.

// query Reported IC50 for CC(C)S(=O)(=O)c1ccccc1Nc1nc(N/N=C/c2ccc(F)cc2F)ncc1Cl : what is it?
// result 100

// query Find the recorded IC50 belonging to COc1ccc(/C=N/Nc2ncc(Cl)c(Nc3ccccc3S(=O)(=O)C(C)C)n2)cc1 and report it.
// result 28

// query Fill in: IC50 of COc1cc(/C=N/Nc2ncc(Cl)c(Nc3ccccc3S(=O)(=O)C(C)C)n2)cc(OC)c1OC is ___
// result 20

// query Reported IC50, molecule CC(C)S(=O)(=O)c1ccccc1Nc1nc(N/N=C/c2ccc(OC(F)(F)F)cc2)ncc1Cl : ____
// result 30

// query Recorded IC50 for CC(C)S(=O)(=O)c1ccccc1Nc1nc(N/N=C/c2ccc(C(F)(F)F)cc2)ncc1Cl , please?
// result 35

// query Any idea what IC50 was measured for C/C(=N\Nc1ncc(Cl)c(Nc2ccccc2S(=O)(=O)C(C)C)n1)c1ccc(F)cc1 ?
// result 20

// query Return reported IC50; argument: COc1ccc(/C(C)=N/Nc2ncc(Cl)c(Nc3ccccc3S(=O)(=O)C(C)C)n2)cc1
// result 34

// query # IC50 lookup, item COc1ccccc1/C=N/Nc1ncc(Cl)c(Nc2ccccc2S(=O)(=O)C(C)C)n1
// result 6930

// query Look at this molecule and give its reported IC50. CC(C)S(=O)(=O)c1ccccc1Nc1nc(N/N=C/c2ccco2)ncc1Cl
// result 750

// query Using the record for CC(C)S(=O)(=O)c1ccccc1Nc1nc(N/N=C/c2cccc(C(F)(F)F)c2)ncc1Cl , report its IC50.
// result 65

// query Quick check: IC50 of CC(C)S(=O)(=O)c1ccccc1Nc1nc(N/N=C/c2ccc(F)cc2)ncc1Cl ?
// result 16

// query I would be grateful if you could share the reported IC50 for CC(C)S(=O)(=O)c1ccccc1Nc1nc(N/N=C/c2ccc(S(C)(=O)=O)cc2)ncc1Cl .
// result 240

// query Would you mind telling me what IC50 value was observed for CC(C)S(=O)(=O)c1ccccc1Nc1nc(N/N=C/c2ccc(C#N)cc2)ncc1Cl ?
// result 340

// query IC50 lookup needed for CC(C)S(=O)(=O)c1ccccc1Nc1nc(N/N=C/c2cccnc2)ncc1Cl , thanks.
// result 930

// query For the molecule C/C(=N\Nc1ncc(Cl)c(Nc2ccccc2S(=O)(=O)C(C)C)n1)c1ccc(C)cc1 , what IC50 is on record?
// result 2230

// query So what's the measured IC50 for this one? COc1cccc(/C=N/Nc2ncc(Cl)c(Nc3ccccc3S(=O)(=O)C(C)C)n2)c1
// result 22

// query I would be grateful if you could share the reported IC50 for Cc1ccc(/C=N/Nc2ncc(Cl)c(Nc3ccccc3S(=O)(=O)C(C)C)n2)cc1 .
// result 1620

// query Endpoint output: IC50 of CC(C)S(=O)(=O)c1ccccc1Nc1nc(N/N=C/c2ccc(Cl)cc2)ncc1Cl . Value?
// result 1320

// query # query: IC50 of entry CC(C)S(=O)(=O)c1ccccc1Nc1nc(N/N=C/c2ccccc2)ncc1Cl
// result 250

---

For each record, write down the corresponding IC50.
# ASSAY REMARKS: cells
# MEASUREMENT SETUP: Homo sapiens, A549, 72 h
# Description: Cytotoxicity against human A549 cells assessed as reduction in cell proliferation after 72 hrs by MTT assay
Field format: number, assumed nM, no unit text.

// query // IC50 lookup, key: CC(C)S(=O)(=O)c1ccccc1Nc1nc(N/N=C/c2ccc(Cl)cc2)ncc1Cl
// result 2930

// query # IC50 lookup, item COc1cccc(/C=N/Nc2ncc(Cl)c(Nc3ccccc3S(=O)(=O)C(C)C)n2)c1
// result 1250

// query Fill blank: measured IC50 of the compound CC(C)S(=O)(=O)c1ccccc1Nc1nc(N/N=C/c2ccc(C(F)(F)F)cc2)ncc1Cl is ____.
// result 940

// query # input compound: CC(C)S(=O)(=O)c1ccccc1Nc1nc(N/N=C/c2ccco2)ncc1Cl ; wanted: its IC50
// result 1940

// query Item under review: C/C(=N\Nc1ncc(Cl)c(Nc2ccccc2S(=O)(=O)C(C)C)n1)c1ccc(F)cc1F . Reported IC50?
// result 1650

// query I have this compound here, COc1cc(/C=N/Nc2ncc(Cl)c(Nc3ccccc3S(=O)(=O)C(C)C)n2)cc(OC)c1OC , and I need its recorded IC50.
// result 1150

// query Could you share which IC50 value was measured for COc1ccccc1/C=N/Nc1ncc(Cl)c(Nc2ccccc2S(=O)(=O)C(C)C)n1 ?
// result 7040

// query Please report the recorded IC50 for CC(C)S(=O)(=O)c1ccccc1Nc1nc(N/N=C/c2ccc(OC(F)(F)F)cc2)ncc1Cl .
// result 980

// query Quick one: IC50 for CC(C)S(=O)(=O)c1ccccc1Nc1nc(N/N=C/c2ccc(F)cc2F)ncc1Cl ?
// result 2280

// query Param item = Cc1ccc(/C=N/Nc2ncc(Cl)c(Nc3ccccc3S(=O)(=O)C(C)C)n2)cc1 ; retrieve measured IC50.
// result 4420

// query IC50 for CC(C)S(=O)(=O)c1ccccc1Nc1nc(N/N=C/c2ccc(F)cc2)ncc1Cl ?
// result 1400

// query Report IC50 for COc1ccc(/C=N/Nc2ncc(Cl)c(Nc3ccccc3S(=O)(=O)C(C)C)n2)cc1 please.
// result 580

// query Form field: reported IC50 of CC(C)S(=O)(=O)c1ccccc1Nc1nc(N/N=C/c2ccncc2)ncc1Cl
// result 1420

---

Hi there, I'd appreciate the recorded log10(IC50) for every entry that follows.
# ASSAY REMARKS: cells
# MEASUREMENT SETUP: Homo sapiens, A549, 72 h
All values: base-10 log of IC50 in nM.

// query Consider the compound shown here: CC(C)S(=O)(=O)c1ccccc1Nc1nc(N/N=C/c2cccc(C(F)(F)F)c2)ncc1Cl What is its recorded log10(IC50)?
// result 3.52

// query What value of log10(IC50) has been reported for the following compound? CC(C)S(=O)(=O)c1ccccc1Nc1nc(N/N=C/c2cccs2)ncc1Cl
// result 2.67

// query # lookup: log10(IC50) of CC(C)S(=O)(=O)c1ccccc1Nc1nc(N/N=C/c2cccc(Br)c2)ncc1Cl
// result 3.04

// query Look up log10(IC50) for this compound: CC(C)S(=O)(=O)c1ccccc1Nc1nc(N/N=C/c2ccccc2)ncc1Cl
// result 3.09

// query Sample C/C(=N\Nc1ncc(Cl)c(Nc2ccccc2S(=O)(=O)C(C)C)n1)c1ccc(Br)cc1 — what was its log10(IC50)?
// result 3.68

---

Hi! I'm sharing some pIC50 results obtained with Hepatocyte growth factor receptor (Homo sapiens).
Sequence (P08581 whole entry): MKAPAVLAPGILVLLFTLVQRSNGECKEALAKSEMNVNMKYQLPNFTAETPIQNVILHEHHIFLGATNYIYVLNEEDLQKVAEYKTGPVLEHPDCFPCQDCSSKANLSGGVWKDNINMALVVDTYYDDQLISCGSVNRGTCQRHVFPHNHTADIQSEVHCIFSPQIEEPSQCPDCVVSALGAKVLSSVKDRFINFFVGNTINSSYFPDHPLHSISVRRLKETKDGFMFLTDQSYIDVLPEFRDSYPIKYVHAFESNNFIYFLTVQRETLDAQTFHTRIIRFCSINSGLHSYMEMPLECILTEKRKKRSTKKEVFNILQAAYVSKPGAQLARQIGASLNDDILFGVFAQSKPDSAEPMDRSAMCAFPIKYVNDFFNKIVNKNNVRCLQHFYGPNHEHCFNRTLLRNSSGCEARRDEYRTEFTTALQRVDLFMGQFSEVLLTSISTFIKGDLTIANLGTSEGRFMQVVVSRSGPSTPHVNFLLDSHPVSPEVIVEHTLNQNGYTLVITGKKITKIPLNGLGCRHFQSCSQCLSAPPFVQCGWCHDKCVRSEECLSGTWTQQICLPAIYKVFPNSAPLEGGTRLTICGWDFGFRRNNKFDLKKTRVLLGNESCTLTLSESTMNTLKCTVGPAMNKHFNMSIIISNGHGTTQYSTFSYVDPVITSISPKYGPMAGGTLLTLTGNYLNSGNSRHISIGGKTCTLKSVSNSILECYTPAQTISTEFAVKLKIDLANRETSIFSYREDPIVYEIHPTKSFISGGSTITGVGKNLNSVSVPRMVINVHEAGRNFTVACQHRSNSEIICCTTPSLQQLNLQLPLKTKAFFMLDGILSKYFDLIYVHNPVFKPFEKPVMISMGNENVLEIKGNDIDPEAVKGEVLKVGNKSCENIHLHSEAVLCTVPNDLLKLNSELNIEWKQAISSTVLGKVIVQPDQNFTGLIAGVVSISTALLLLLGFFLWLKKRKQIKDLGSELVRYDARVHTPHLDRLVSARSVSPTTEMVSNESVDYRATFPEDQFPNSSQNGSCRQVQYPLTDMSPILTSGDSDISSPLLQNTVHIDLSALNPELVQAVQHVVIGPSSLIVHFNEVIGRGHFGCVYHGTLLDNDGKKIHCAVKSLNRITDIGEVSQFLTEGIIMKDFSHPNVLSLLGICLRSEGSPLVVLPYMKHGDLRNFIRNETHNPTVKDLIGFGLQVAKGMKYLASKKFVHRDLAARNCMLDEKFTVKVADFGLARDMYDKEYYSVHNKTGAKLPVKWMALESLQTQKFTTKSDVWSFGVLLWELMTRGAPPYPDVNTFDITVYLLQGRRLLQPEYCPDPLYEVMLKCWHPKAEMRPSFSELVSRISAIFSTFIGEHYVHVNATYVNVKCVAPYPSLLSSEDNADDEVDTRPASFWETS
Please keep in mind that pIC50 is minus log10 of the molar concentration; only the number is needed.

// query Can you share its pIC50? I mean this compound: CC(C)S(=O)(=O)c1ccccc1Nc1nc(N/N=C/c2cccc(C(F)(F)F)c2)ncc1Cl
// result 6.32

// query Name the reported pIC50 value associated with the compound CC(C)S(=O)(=O)c1ccccc1Nc1nc(N/N=C/c2ccc(C(F)(F)F)cc2)ncc1Cl
// result 6.42

// query # query: pIC50 of entry COc1cccc(/C=N/Nc2ncc(Cl)c(Nc3ccccc3S(=O)(=O)C(C)C)n2)c1
// result 6.42

---

pIC50, ALK tyrosine kinase receptor (Homo sapiens, UniProt Q9UM73, L1196M), per-entry values.
# pIC50 is unitless: minus log10 of the molar concentration; print number only

// query Look up pIC50: C/C(=N\Nc1ncc(Cl)c(Nc2ccccc2S(=O)(=O)C(C)C)n1)c1ccc(F)cc1
// result 7.17

// query // lookup pIC50 for COc1cccc(/C=N/Nc2ncc(Cl)c(Nc3ccccc3S(=O)(=O)C(C)C)n2)c1
// result 7.07

// query Fill in: pIC50 of COc1ccc(/C=N/Nc2ncc(Cl)c(Nc3ccccc3S(=O)(=O)C(C)C)n2)cc1 is ___
// result 7.09

// query Data request, read-out pIC50, for COc1ccc(/C(C)=N/Nc2ncc(Cl)c(Nc3ccccc3S(=O)(=O)C(C)C)n2)cc1
// result 7.10

// query Looking for the measured pIC50 of CC(C)S(=O)(=O)c1ccccc1Nc1nc(N/N=C/c2ccc(OC(F)(F)F)cc2)ncc1Cl , can you help?
// result 7.10

// query Field request: pIC50 | item: CC(C)S(=O)(=O)c1ccccc1Nc1nc(N/N=C/c2ccc(F)cc2)ncc1Cl
// result 7.35

// query I'd like to know its pIC50. The molecule in question is CC(C)S(=O)(=O)c1ccccc1Nc1nc(N/N=C/c2ccc(C(F)(F)F)cc2)ncc1Cl
// result 7.14

// query I have this molecule here, CC(C)S(=O)(=O)c1ccccc1Nc1nc(N/N=C/c2cccc(C(F)(F)F)c2)ncc1Cl , and I need its recorded pIC50.
// result 7.16

Data origin: ChEMBL document CHEMBL3870304
